// data source = PubChem BioAssay

- test_target: Calmodulin-1 (Homo sapiens) (UniProt P0DP23)
- test_name: calcium-bound CALM1 binders on microarrays, profiling panel, artefact control for SMM control-protein annotation, biochemical, small-molecule microarray, Cy5-labelled CALM1, plus calcium (AID 1112);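 also: score merges spot fluorescence with signal to noise from triplicate slides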
- reported_conditions: Cy5-CALM1 binding fluorescence, higher = more signal
Kindly state composite z-score for each of the entries shown.
// return just the number, without any unit appended

Tell me reported composite z-score for CC(C)C(=C=CC[C@@H](O)c1ccc(CO)o1)CCO , tested with Calmodulin-1 (Homo sapiens) (UniProt P0DP23).
-0.13

Tell me reported composite z-score for C=C(/C(=C/C[C@H](OC(=O)c1ccncc1)c1cccc(OCCO)c1)c1cc(C(=O)OC)ccc1OC)C(C)C , tested with Calmodulin-1 (Homo sapiens) (UniProt P0DP23).
-0.808

Tell me reported composite z-score for O=C1O[C@H](c2ccccc2)[C@H](c2ccccc2)N2[C@H]1[C@@H](C(=O)NC[C@H](O)c1ccccc1)[C@]1(C(=O)Nc3ccc(C#CC4(O)CCCCCC4)cc31)[C@H]2c1ccc(O)cc1 , tested with Calmodulin-1 (Homo sapiens) (UniProt P0DP23).
0.107

Tell me reported composite z-score for CC(C)(C)OC(=O)CC[C@@]1(C(=O)N2CCOCC2)N=C(c2ccc(OCCCO)cc2)O[C@@H]1c1ccccc1 , tested with Calmodulin-1 (Homo sapiens) (UniProt P0DP23).
1.31

Tell me reported composite z-score for Cc1ccc(S[C@]2(C(=O)NCC(C)C)CC(=O)N(C(C)C)[C@@H]2c2ccc(CO)cc2)cc1 , tested with Calmodulin-1 (Homo sapiens) (UniProt P0DP23).
0.134

Tell me reported composite z-score for COCCOC(=O)N1C(=O)[C@@]2(c3cc(C#CCNC(N)=O)ccc31)[C@H](C(=O)NC[C@H](O)c1ccccc1)[C@H]1C(=O)O[C@H](c3ccccc3)[C@H](c3ccccc3)N1[C@@H]2c1ccc(O)cc1 , tested with Calmodulin-1 (Homo sapiens) (UniProt P0DP23).
0.571

Tell me reported composite z-score for C=CCNC(=O)[C@@H]1[C@H]2C(=O)O[C@H](c3ccccc3)[C@H](c3ccccc3)N2[C@H](c2ccc(O)cc2)[C@@]12C(=O)Nc1ccccc12 , tested with Calmodulin-1 (Homo sapiens) (UniProt P0DP23).
0.259

Tell me reported composite z-score for O=C1O[C@H](c2ccccc2)[C@H](c2ccccc2)N2[C@H]1[C@@H](C(=O)Nc1nc3ccccc3s1)[C@]1(C(=O)Nc3ccc(C#CCCO)cc31)[C@H]2c1ccccc1OCCO , tested with Calmodulin-1 (Homo sapiens) (UniProt P0DP23).
0.439

Tell me reported composite z-score for COC(=O)C(CC#Cc1ccc2c(c1)[C@]1(C(=O)N2)[C@H](C(N)=O)[C@H]2C(=O)O[C@H](c3ccccc3)[C@H](c3ccccc3)N2[C@@H]1c1ccc(O)cc1)C(=O)OC , tested with Calmodulin-1 (Homo sapiens) (UniProt P0DP23).
0.221

Tell me reported composite z-score for Cc1ccc(S[C@]2(C(=O)NCCN3CCOCC3)CC(=O)N(Cc3cc(C(F)(F)F)cc(C(F)(F)F)c3)[C@@H]2c2ccc(CO)cc2)cc1 , tested with Calmodulin-1 (Homo sapiens) (UniProt P0DP23).
-0.132

Tell me reported composite z-score for C=CCC(OC(C)=O)[C@@H]1[C@@H](N(Cc2ccc(-c3ccccc3)cc2)C(=O)c2ccc(-c3ccccc3)cc2)c2cc(OCCCO)ccc2N1C(=O)c1ccc(-c2ccccc2)cc1 (stereo partly drawn) , tested with Calmodulin-1 (Homo sapiens) (UniProt P0DP23).
0.92

Tell me reported composite z-score for Cc1ccc(S[C@]2(C(=O)NC3CC3)CC(=O)N(Cc3ccccc3C(F)(F)F)[C@@H]2c2ccc(CO)cc2I)cc1 , tested with Calmodulin-1 (Homo sapiens) (UniProt P0DP23).
1.14

Tell me reported composite z-score for CC(C)(C)OC(=O)CC[C@@]12N=C(c3ccc(OCCCO)cc3)O[C@@H]1c1ccccc1N(Cc1ccccc1)C2=O , tested with Calmodulin-1 (Homo sapiens) (UniProt P0DP23).
0.621

* * *

- test_name: E. coli growth modulation, two-sided OD650, primary screen, E. coli filamentation project, strain DRC41, 24 h (AID 1093);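 also: MC1000 strain lacking acrAB efflux and sulA so SOS filamentation is blocked; test concentration not given here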
- reported_conditions: OD650, 24 h, higher = more signal, called active from +8 up or from −8 down
Kindly state z-score for each of the entries shown.
// return just the number, without any unit appended

Return reported z-score; argument: COc1ccc(/C=C/C(=O)c2cccc(OCC(=O)OC(C)(C)C)c2)cc1
0.328

Return reported z-score; argument: C[N+](C)(C)CCCCNC(=O)[C@@H]1C[C@@H]2C(=O)NCC(=O)N2[C@@H]1c1cccc(OCCO)c1
1.73

Return reported z-score; argument: COc1ccc([Si](C)(C)[C@@H]2[C@@H](CCn3cc([C@H](O)c4ccccc4)nn3)O[C@]3(C(=O)N(C)c4c(Br)cc(C)cc43)[C@H]2C)cc1
2.87

Return reported z-score; argument: O=C1c2ccccc2[C@@]2(Cc3ccccc3N(CC(F)(F)F)C2=O)[C@H](c2ccc(CO)cc2)N1Cc1ccccc1C(F)(F)F
0.886

* * *

Kindly state z-score for each of the entries shown.
- test_target: Luciferin 4-monooxygenase (Photinus pyralis)
- test_name: firefly luciferase enzyme inhibitors, primary screen, biochemical, luminescence, purified enzyme, 2006 set (AID 1141);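 also: cell-free assay with purified firefly luciferase at 100 ng per well in PBS; test concentration not given here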
- reported_conditions: SteadyGlo luminescence, 30 min, higher = more signal, called active from +8 up or from −8 down
// return just the number, without any unit appended

Tell me reported z-score for COCCOC(=O)N1C(=O)[C@@]2(c3cc(C#CC4(O)CCCCCC4)ccc31)[C@H](C(=O)NC[C@H](O)c1ccccc1)[C@H]1C(=O)O[C@H](c3ccccc3)[C@H](c3ccccc3)N1[C@@H]2c1ccccc1OCCO , tested with Luciferin 4-monooxygenase (Photinus pyralis).
-1.81

Tell me reported z-score for COCCOC(=O)N1C(=O)[C@@]2(c3cc(C#CCNC(N)=O)ccc31)[C@H](C(=O)NC[C@H](O)c1ccccc1)[C@H]1C(=O)O[C@H](c3ccccc3)[C@H](c3ccccc3)N1[C@@H]2c1ccc(O)cc1 , tested with Luciferin 4-monooxygenase (Photinus pyralis).
-1.48

Tell me reported z-score for O=C(NCC(F)(F)F)[C@@H]1c2ccccc2C(=O)N(C2Cc3ccccc3C2)[C@H]1c1ccc(CO)cc1 , tested with Luciferin 4-monooxygenase (Photinus pyralis).
-1.04

Tell me reported z-score for NCCCCCNC(=O)[C@H]1C[C@H]2C(=O)NCC(=O)N2[C@H]1c1ccc(O)cc1 , tested with Luciferin 4-monooxygenase (Photinus pyralis).
-1.04

Tell me reported z-score for CC(=O)NCCCC[C@@H]1NC(=O)[C@@H]2C[C@H](C(=O)O)[C@H](c3cccc(OCCO)c3)N2C1=O , tested with Luciferin 4-monooxygenase (Photinus pyralis).
-1.16

Tell me reported z-score for O=C1c2ccccc2C(=O)c2cc([C@H]3Oc4ccccc4S(=O)(=O)N4CCC[C@@H]34)ccc21 , tested with Luciferin 4-monooxygenase (Photinus pyralis).
-1.04

Tell me reported z-score for COc1ccc([Si](C)(C)[C@H]2[C@H](CC(=O)N(CCO)Cc3ccccc3)O[C@@]3(C(=O)N(Cc4cccc(N5C(=O)COc6ccccc65)c4)c4ccccc43)[C@@H]2C)cc1 , tested with Luciferin 4-monooxygenase (Photinus pyralis).
-1.8

* * *

- System: PRMT1 (protein arginine N-methyltransferase 1)
- test_name: PRMT1 binders on small-molecule microarrays, primary screen, biochemical, small-molecule microarray, 635 nm fluorescence (AID 1088);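 also: binding of Prmt1 protein to compounds spotted on small-molecule microarray slides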
- reported_conditions: small-molecule microarray binding, higher = more signal
Kindly state composite z-score for each of the entries shown.
// return just the number, without any unit appended

Return reported composite z-score; argument: C=C(/C(=C/C[C@H](OC(=O)c1ccncc1)c1cccc(OCCO)c1)c1cc(C(=O)OC)ccc1OC)C(C)C
1.26

Return reported composite z-score; argument: CCCCCCC#C[Si](O[C@H](c1ccccc1)c1cn(Cc2ccccc2)nn1)(C(C)C)C(C)C
0.63

Return reported composite z-score; argument: C/C=C/[C@@H](CCn1cc(CCO[Si](C(C)C)(C(C)C)C(C)C)nn1)[Si](C)(C)c1ccc(OC)cc1
-0.551

Return reported composite z-score; argument: COC(=O)C1=CC(CCCO)=CC(C2CC2)N(Cc2cc3c(cc2Br)OCO3)C=C1C(=O)OC (configuration not stated)
1.54

Return reported composite z-score; argument: COCCOC(=O)N1C(=O)[C@@]2(c3cc(C#CCCO)ccc31)[C@H](c1ccccc1OCCO)N1[C@H](c3ccccc3)[C@H](c3ccccc3)OC(=O)[C@H]1[C@@H]2C(=O)NC[C@H](O)c1ccccc1
1.56

Return reported composite z-score; argument: C[C@@H](OCc1ccccc1)C1NC(=O)[C@@]23C(=O)N[C@@H](Cc4ccccc4)C2[C@H](C)[C@@]2(C)O[C@H]2C3/C=C/C/C=C\CNC(=O)[C@@H]2CCCN2C1=O (some centres not stated)
-0.449

Return reported composite z-score; argument: O=C(O)[C@H]1C[C@H]2C(=O)NCC(=O)N2[C@H]1c1cccc(OCCO)c1
1.23
